FYI, the data here is from patent US20250051375A1.

target: bovine intestinal alkaline phosphatase (Bos taurus (Bovine), UniProt P19111); test: BiALP: conversion by bovine intestinal alkaline phosphatase; assay type: in vitro ADME; conditions: 2 μM substrate, 100 ng/mL iALP, Tris pH 7.8, 37° C., 60 minutes
Sequence (P19111 20-506): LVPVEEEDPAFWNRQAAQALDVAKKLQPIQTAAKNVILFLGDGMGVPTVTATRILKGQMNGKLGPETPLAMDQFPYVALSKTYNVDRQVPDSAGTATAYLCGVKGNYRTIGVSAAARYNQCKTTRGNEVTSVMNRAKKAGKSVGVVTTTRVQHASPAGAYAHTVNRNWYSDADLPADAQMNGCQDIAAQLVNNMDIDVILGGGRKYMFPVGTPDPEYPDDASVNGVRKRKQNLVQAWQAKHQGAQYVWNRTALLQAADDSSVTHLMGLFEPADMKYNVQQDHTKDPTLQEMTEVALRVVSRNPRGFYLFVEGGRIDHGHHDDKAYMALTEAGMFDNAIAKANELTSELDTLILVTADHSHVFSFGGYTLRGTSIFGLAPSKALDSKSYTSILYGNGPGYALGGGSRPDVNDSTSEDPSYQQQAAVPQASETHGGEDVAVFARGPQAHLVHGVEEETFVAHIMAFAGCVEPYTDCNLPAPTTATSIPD
The reader will find reported [Compound] values listed item by item below.
recorded.endpoint: [Compound] (nM)

structure.smiles | unit | meas.value
COC(=O)N[C@H](C(=O)N[C@@H](Cc1ccc(C#Cc2cnc(N3CC4CCC(C3)N4C3COC3)nc2)cc1)[C@H](CN(Cc1c(F)cc(-c2ccn(C(F)F)n2)cc1F)NC(=O)[C@@H](NC(=O)OC)C(C)(C)C(F)(F)F)OC(=O)CC(C)(C)c1c(CC(=O)NCCOP(=O)(O)O)cc(C)cc1OP(=O)(O)O)C(C)(C)C(F)(F)F | nM | 1103.4
COC(=O)N[C@H](C(=O)N[C@@H](Cc1ccc(C#Cc2cnc(N3CC4CCC(C3)N4C3COC3)nc2)cc1)[C@H](CN(Cc1c(F)cc(-c2ccn(C(F)F)n2)cc1F)NC(=O)[C@@H](NC(=O)OC)C(C)(C)C(F)(F)F)OC(=O)CC(C)(C)c1c(CC(=O)Nc2cc(C(=O)O)cc(S(C)(=O)=O)c2)cc(C)cc1OP(=O)(O)O)C(C)(C)C(F)(F)F | nM | 1951.1

###

test system: HIV-1 IIIB strain; experiment: MT-4 HIV Wild Type Virus Infection Assay (IIIB Virus); format: cell-based; details: Human immunodeficiency virus 1, IIIB, MT4, 120 h, MT-4 cells acutely infected with HIV-1 IIIB, 5 day incubation, Cell-titer glo
pEC50: −log10 of the molar value.
recorded.endpoint: pEC50

structure.smiles | assayed.system | meas.value
COC(=O)N[C@H](C(=O)N[C@@H](Cc1ccc(C#Cc2cnc(N3CC4CCC(C3)N4C3COC3)nc2)cc1)[C@H](CN(Cc1c(F)cc(-c2ccn(C(F)F)n2)cc1F)NC(=O)[C@@H](NC(=O)OC)C(C)(C)C(F)(F)F)OC(=O)CC(C)(C)c1c(CC(=O)NCCCS(=O)(=O)O)cc(C)cc1OP(=O)(O)O)C(C)(C)C(F)(F)F | HIV-1 IIIB strain | 7.20
COC(=O)N[C@H](C(=O)N[C@@H](Cc1ccc(C#Cc2cnc(N3CC4CCC(C3)N4C3COC3)nc2)cc1)[C@H](CN(Cc1c(F)cc(-c2ccn(C(F)F)n2)cc1F)NC(=O)[C@@H](NC(=O)OC)C(C)(C)C(F)(F)F)OC(=O)OCOC(=O)CC(C)(C)c1c(CC(=O)N2CCN(S(=O)(=O)N(C)C)CC2)cc(C)cc1OP(=O)(O)O)C(C)(C)C(F)(F)F | HIV-1 IIIB strain | 8.39
COC(=O)N[C@H](C(=O)N[C@@H](Cc1ccc(C#Cc2cnc(N3CC4CCC(C3)N4C3COC3)nc2)cc1)[C@H](CN(Cc1c(F)cc(-c2ccn(C(F)F)n2)cc1F)NC(=O)[C@@H](NC(=O)OC)C(C)(C)C(F)(F)F)OC(=O)CC(C)(C)c1c(CC(=O)N(CC(=O)O)CC(=O)O)cc(C)cc1OP(=O)(O)O)C(C)(C)C(F)(F)F | HIV-1 IIIB strain | 6.12

###

The reader will find reported [Compound] values listed item by item below.
biological target: bovine intestinal alkaline phosphatase (Bos taurus (Bovine)); assay: BiALP: conversion by bovine intestinal alkaline phosphatase; type: in vitro ADME; conditions: 2 μM substrate, 100 ng/mL iALP, Tris pH 7.8, 37° C., 60 minutes

molecule | assayed.system | [Compound] (nM)
COC(=O)N[C@H](C(=O)N[C@@H](Cc1ccc(C#Cc2cnc(N3CC4CCC(C3)N4C3COC3)nc2)cc1)[C@H](CN(Cc1c(F)cc(-c2ccn(C(F)F)n2)cc1F)NC(=O)[C@@H](NC(=O)OC)C(C)(C)C(F)(F)F)OC(=O)CC(C)(C)c1c(CC(=O)NC(CP(=O)(O)O)C(=O)O)cc(C)cc1OP(=O)(O)O)C(C)(C)C(F)(F)F (stereo partly drawn) [Example 34] | bovine intestinal alkaline phosphatase (Bos taurus (Bovine)) | 2238.2
COC(=O)N[C@H](C(=O)N[C@@H](Cc1ccc(C#Cc2cnc(N3CC4CCC(C3)N4C3COC3)nc2)cc1)[C@H](CN(Cc1c(F)cc(-c2ccn(C(F)F)n2)cc1F)NC(=O)[C@@H](NC(=O)OC)C(C)(C)C(F)(F)F)OC(=O)CC(C)(C)c1c(CC(=O)N2[C@@H](C)CC[C@H]2C(=O)O)cc(C)cc1OP(=O)(O)O)C(C)(C)C(F)(F)F [Example 54] | bovine intestinal alkaline phosphatase (Bos taurus (Bovine)) | 1661.6
COC(=O)N[C@H](C(=O)N[C@@H](Cc1ccc(C#Cc2cnc(N3CC4CCC(C3)N4C3COC3)nc2)cc1)[C@H](CN(Cc1c(F)cc(-c2ccn(C(F)F)n2)cc1F)NC(=O)[C@@H](NC(=O)OC)C(C)(C)C(F)(F)F)OC(=O)OCOC(=O)CC(C)(C)c1c(CC(=O)NC(C)(C)CCC(=O)O)cc(C)cc1OP(=O)(O)O)C(C)(C)C(F)(F)F [Example 73] | bovine intestinal alkaline phosphatase (Bos taurus (Bovine)) | 1660.4
COC(=O)N[C@H](C(=O)N[C@@H](Cc1ccc(C#Cc2ccc(N3CC4CCC(C3)N4C3COC3)nc2)cc1)[C@H](CN(Cc1c(F)cc(-c2ccn(C(F)F)n2)cc1F)NC(=O)[C@@H](NC(=O)OC)C(C)(C)C(F)(F)F)OC(=O)CC(C)(C)c1c(CC(=O)Nc2cccc(C(=O)OO)c2)cc(C)cc1CP(=O)(O)O)C(C)(C)C(F)(F)F [Example 15] | bovine intestinal alkaline phosphatase (Bos taurus (Bovine)) | 2690.4
COC(=O)N[C@H](C(=O)N[C@@H](Cc1ccc(C#Cc2cnc(N3CC4CCC(C3)N4C3COC3)nc2)cc1)[C@H](CN(Cc1c(F)cc(-c2ccn(C(F)F)n2)cc1F)NC(=O)[C@@H](NC(=O)OC)C(C)(C)C(F)(F)F)OC(=O)CC(C)(C)c1c(CC(=O)NC(CCCC(=O)O)C(=O)O)cc(C)cc1OP(=O)(O)O)C(C)(C)C(F)(F)F (stereo partly drawn) [Example 41] | bovine intestinal alkaline phosphatase (Bos taurus (Bovine)) | 2074.8
COC(=O)N[C@H](C(=O)N[C@@H](Cc1ccc(C#Cc2cnc(N3CC4CCC(C3)N4C3COC3)nc2)cc1)[C@H](CN(Cc1c(F)cc(-c2ccn(C(F)F)n2)cc1F)NC(=O)[C@@H](NC(=O)OC)C(C)(C)C(F)(F)F)OC(=O)CC(C)(C)c1c(CC(=O)NCCS(=O)(=O)O)cc(C)cc1OP(=O)(O)O)C(C)(C)C(F)(F)F [Example 24] | bovine intestinal alkaline phosphatase (Bos taurus (Bovine)) | 1717.9

###

The reader will find reported solubility at 2 h values listed item by item below.
assay: Solubility in FaSSIF; settings: 23 °C, pH 6.5, fassif, thermodynamic from solid

structure.smiles | solubility at 2 h
COC(=O)N[C@H](C(=O)N[C@@H](Cc1ccc(C#Cc2cnc(N3CC4CCC(C3)N4C3COC3)nc2)cc1)[C@H](CN(Cc1c(F)cc(-c2ccn(C(F)F)n2)cc1F)NC(=O)[C@@H](NC(=O)OC)C(C)(C)C(F)(F)F)OC(=O)CC(C)(C)c1c(CC(=O)NC23CC(C(=O)O)(C2)C3)cc(C)cc1OP(=O)(O)O)C(C)(C)C(F)(F)F | 3500 µg/mL
COC(=O)N[C@H](C(=O)N[C@@H](Cc1ccc(C#Cc2cnc(N3CC4CCC(C3)N4C3COC3)nc2)cc1)[C@H](CN(Cc1c(F)cc(-c2ccn(C(F)F)n2)cc1F)NC(=O)[C@@H](NC(=O)OC)C(C)(C)C(F)(F)F)OC(=O)CC(C)(C)c1c(CC(=O)NCc2cccc(C(=O)O)c2)cc(C)cc1OP(=O)(O)O)C(C)(C)C(F)(F)F | < 1000 µg/mL
COC(=O)N[C@H](C(=O)N[C@@H](Cc1ccc(C#Cc2cnc(N3CC4CCC(C3)N4C3COC3)nc2)cc1)[C@H](CN(Cc1c(F)cc(-c2ccn(C(F)F)n2)cc1F)NC(=O)[C@@H](NC(=O)OC)C(C)(C)C(F)(F)F)OC(=O)CC(C)(C)c1c(CC(=O)N[C@@H](CCC(=O)O)C(=O)O)cc(C)cc1OP(=O)(O)O)C(C)(C)C(F)(F)F | 3890 µg/mL

###

experiment: Intestinal S9 Assay (dog GI S9); assay type: in vitro ADME; details: dog, 1.0 mg/mL S9 protein, TRIS pH 7.4, read-out: Dog GI S9 T½
recorded.endpoint: half-life at 2 μM (h)

structure.smiles | meas.value
COC(=O)N[C@H](C(=O)N[C@@H](Cc1ccc(C#Cc2cnc(N3CC4CCC(C3)N4C3COC3)nc2)cc1)[C@H](CN(Cc1c(F)cc(-c2ccn(C(F)F)n2)cc1F)NC(=O)[C@@H](NC(=O)OC)C(C)(C)C(F)(F)F)OC(=O)CC(C)(C)c1c(CC(=O)Nc2ccc(/C=C/C(=O)O)cc2)cc(C)cc1OP(=O)(O)O)C(C)(C)C(F)(F)F | 2.59
COC(=O)N[C@H](C(=O)N[C@@H](Cc1ccc(C#Cc2cnc(N3CC4CCC(C3)N4C3COC3)nc2)cc1)[C@H](CN(Cc1c(F)cc(-c2ccn(C(F)F)n2)cc1F)NC(=O)[C@@H](NC(=O)OC)C(C)(C)C(F)(F)F)OC(=O)CC(C)(C)c1c(CC(=O)NCc2cccc(C(=O)O)c2)cc(C)cc1OP(=O)(O)O)C(C)(C)C(F)(F)F | 2.41
COC(=O)N[C@H](C(=O)N[C@@H](Cc1ccc(C#Cc2cnc(N3CC4CCC(C3)N4C3COC3)nc2)cc1)[C@H](CN(Cc1c(F)cc(-c2ccn(C(F)F)n2)cc1F)NC(=O)[C@@H](NC(=O)OC)C(C)(C)C(F)(F)F)OC(=O)CC(C)(C)c1c(CC(=O)N[C@@H](CCS(=O)(=O)O)C(=O)O)cccc1OP(=O)(O)O)C(C)(C)C(F)(F)F | 0.537
